Where do these numbers come from? They come from ChEMBL document CHEMBL5096184.

- System: Plasmodium falciparum
- Assay overview: Antiplasmodial activity against chloroquine sensitive Plasmodium falciparum FCA 20/Ghana
- Format: functional, organism-based
- Settings: Plasmodium falciparum, FCA 20/Ghana
Mark 1 (yes) only when IC50 stays strictly below 900 nM. Values equal to the cut-off are 0 (no).

| Molecule | Assigned category |
| --- | --- |
| C=C[C@H]1CN2CCc3c([nH]c4ccc(O)cc34)[C@@H]2C[C@@H]1CC1c2[nH]c3ccccc3c2CCN1C (stereo partly drawn) | 1 (yes) |
| CN1CCc2c3n(c4ccccc24)C(O)C[C@H](C2=CCOC2=O)C[C@@H]31 (stereo partly drawn) | 0 (no) |
| C=C[C@H]1CN2CCc3c([nH]c4c([C@@H]5CCCN5C)c(O)ccc34)[C@@H]2C[C@@H]1CC1c2[nH]c3ccccc3c2CCN1C (stereo partly drawn) | 1 (yes) |

State whether 900 nM exceeds IC50 recorded for CC1C2=CN3CCc4c([nH]c5ccc(O)cc45)C3CC2CC2C3C(CCN2C)c2ccccc2N13 (stereo in doubt; 34) .
0 (no)

// query: C/C=C1\CN2CCc3c([nH]c4ccccc34)[C@@H]2C[C@@H]1Cc1nccc2c1[nH]c1ccccc12
0 (no)

// query: CC[C@H]1CN2CCc3c([nH]c4ccccc34)[C@@H]2C[C@@H]1C[C@H]1NCCc2c1[nH]c1ccccc21
1 (yes)

// query: C/C=C1\CN2CCc3c([nH]c4ccccc34)[C@@H]2C[C@@H]1CC1=NCCc2c1[nH]c1ccccc21
1 (yes)

// query: C=C[C@H]1CN2CCc3c([nH]c4ccccc34)[C@@H]2C[C@@H]1CC1c2[nH]c3ccccc3c2CCN1C (stereo partly drawn)
0 (no)
